Entry source: patent US20050245438A1

TGT: T1, cloned human SRIF receptor SSTR2 (human, UniProt P30874 1-369)
T1 construct: whole, on cells; assayed as cryostat sections of membrane pellets of the transfected cells; also called hSSTR2
PROCEDURE SUMMARY: radioligand displacement (125I-[Leu8,D-Trp22,Tyr25]SRIF-28), membrane pellet sections
pIC50: −log10 of the molar value. Bridge positions count the residues as written; N and C are the ends. Square brackets hold non-standard residues; d marks the D form. Phe(4-CH2NH2) = NCc1ccc(C[C@H](N)C(=O)O)cc1; Phe(4-NH2) = Nc1ccc(C[C@H](N)C(=O)O)cc1
MEASUREMENT TYPE: pIC50

BINDER	pIC50
H-YCF[Phe(4-NH2)]WKTFC-OH (disulfide 2-9, synthetic cyclic nonapeptide; also called Peptide No. 6) [(cyclo)H-Tyr-Cys-Phe-4Aph-Trp-Lys-Thr-Phe-Cys-OH]	6.59
H-CF[Phe(4-NH2)]WKTYC-OH (disulfide 1-8, synthetic cyclic octapeptide; also called Peptide 9; Peptide No. 9) [(cyclo)H-Cys-Phe-4Aph-Trp-Lys-Thr-Tyr-Cys-OH]	6.77
H-CFAWKTFC-OH (disulfide 1-8; SMILES C[C@@H]1NC(=O)[C@H](Cc2ccccc2)NC(=O)[C@@H](N)CSSC[C@@H](C(=O)O)NC(=O)[C@H](Cc2ccccc2)NC(=O)[C@H]([C@@H](C)O)NC(=O)[C@H](CCCCN)NC(=O)[C@H](Cc2c[nH]c3ccccc23)NC1=O, synthetic cyclic octapeptide; also called Peptide No. 12) [des-AA^1,2,4,5,12,13-[Ala^7]SRIF, (cyclo)H-Cys-Phe-Ala-Trp-Lys-Thr-Phe-Cys-OH]	6.09
H-YCF[Phe(4-CH2NH2)]WKTFC-OH (disulfide 2-9, here position 7 is 4Amp; also called Peptide 15; Peptide No. 15) [(cyclo)H-Tyr-Cys-Phe-4 Amp-Trp-Lys-Thr-Phe-Cys-OH]	6.59
